// data source = paper PMC3185571

- subject_of_test: neuraminidase of 2009 pandemic H1N1 H275 wildtype virus isolates (Influenza A virus)
- Type: biochemical, 2009 pandemic H1N1 influenza virus
- protocol_conditions: read-out: IC50 Mean (±SD)
observable: IC50
Answer with the value and then the unit.

// output IC50; input CCC(CC)[C@H](NC(C)=O)[C@@H]1[C@H](O)[C@@H](C(=O)O)C[C@H]1N=C(N)N [Peramivir, peramivir] ; system neuraminidase of 2009 pandemic H1N1 H275 wildtype virus isolates (Influenza A virus) 0.08 nM

---

- subject_of_test: neuraminidase of seasonal influenza B virus isolates (Influenza B virus, UniProt U5XBU0)
- Format: biochemical
- protocol_conditions: read-out: IC50 X0.75 (75th Percentile)
observable: pIC50
pIC50 here is simply -log10 of the concentration when that concentration is written in mol/L.

Look up and report measured pIC50 for this entry: "CCC(CC)[C@H](NC(C)=O)[C@@H]1[C@H](O)[C@@H](C(=O)O)C[C@H]1N=C(N)N" 9.17

---

- subject_of_test: neuraminidase of 2009 pandemic H1N1 H275 wildtype virus isolates (Influenza A virus, UniProt C3W5S3)
- Format: biochemical, 2009 pandemic H1N1 influenza virus
- protocol_conditions: read-out: IC50 Median
observable: IC50 (nM)
// note: answer is a bare numeric in nM

# return recorded IC50 for input "CCC(CC)[C@H](NC(C)=O)[C@@H]1[C@H](O)[C@@H](C(=O)O)C[C@H]1N=C(N)N" 0.07

---

- subject_of_test: neuraminidase of seasonal influenza A(H1N1) H275 wildtype virus isolates (Influenza A virus)
- Format: biochemical
- protocol_conditions: read-out: IC50 Statistical Cutoff (X0.75 + 3IQR)
observable: IC50
I'd appreciate it if you wrote the number followed by its unit.

Give the measured IC50 for CCC(CC)[C@H](NC(C)=O)[C@@H]1[C@H](O)[C@@H](C(=O)O)C[C@H]1N=C(N)N [Peramivir, peramivir] 0.28 nM

---

- subject_of_test: neuraminidase of seasonal influenza A(H3N2) virus isolates (Influenza A virus, UniProt X2GK54)
- Type: biochemical
- protocol_conditions: read-out: IC50 Median
observable: IC50 (nM)
Give your result in nM as a bare value.

Return reported IC50. Input compound: "CCC(CC)[C@H](NC(C)=O)[C@@H]1[C@H](O)[C@@H](C(=O)O)C[C@H]1N=C(N)N" 0.14

---

- subject_of_test: neuraminidase of B/Memphis/20/1996, B Seasonal, WT (Influenza B virus, UniProt C7FPS7)
- protocol_conditions: read-out: Mean IC50 ± SD
observable: IC50 (nM)
All answers are understood in nM, so give the number only.

Assign IC50 to the following record: CCC(CC)[C@H](NC(C)=O)[C@@H]1[C@H](O)[C@@H](C(=O)O)C[C@H]1N=C(N)N [Peramivir, peramivir] 0.31

---

- subject_of_test: neuraminidase of A/Washington/10/2008, A (H1N1) Seasonal, WT (Influenza A virus)
- protocol_conditions: read-out: Mean IC50 ± SD
observable: IC50 (pM)
Report as a plain number; the unit pM is understood.

Identify IC50 associated with the compound "CCC(CC)[C@H](NC(C)=O)[C@@H]1[C@H](O)[C@@H](C(=O)O)C[C@H]1N=C(N)N" 90

---

- subject_of_test: neuraminidase of seasonal influenza B virus isolates (Influenza B virus, UniProt U5XBU0)
- Assay type: biochemical
- protocol_conditions: read-out: IC50 Statistical Cutoff (X0.75 + 3IQR)
observable: pIC50
In simple prose, pIC50 is minus the logarithm base ten of a concentration in moles per litre.

Give the value of pIC50 reported for the following: "CCC(CC)[C@H](NC(C)=O)[C@@H]1[C@H](O)[C@@H](C(=O)O)C[C@H]1N=C(N)N" 8.86
